Ref: ChEMBL document CHEMBL1137106

In this section, each of the compounds is paired with its reported IA.
Tested on: Cell line
assay-protocol: Percentage of alpha-MSH stimulated cAMP level at 10 uM
Format: functional, Homo sapiens

>  <compound>
NCCC(=O)N[C@H](Cc1ccc(Cl)cc1)C(=O)N1CCN(c2ccccc2CNCCc2cccs2)CC1

>  <qualifier-symbol>
=

>  <IA [%]>
14

$$$$
>  <compound>
NCCCC(=O)N[C@H](Cc1ccc(Cl)cc1)C(=O)N1CCN(c2ccccc2CNCCc2cccs2)CC1

>  <qualifier-symbol>
=

>  <IA [%]>
15

$$$$
>  <compound>
CCC(NCCc1cccs1)c1ccccc1N1CCN(C(=O)[C@@H](Cc2ccc(Cl)cc2)NC(=O)CCN)CC1 (stereo partly drawn)

>  <qualifier-symbol>
=

>  <IA [%]>
29

$$$$
>  <compound>
CC(c1ccccc1N1CCN(C(=O)[C@@H](Cc2ccc(Cl)cc2)NC(=O)CCN)CC1)N1CCN(c2ccccc2)CC1 (stereo partly drawn)

>  <qualifier-symbol>
=

>  <IA [%]>
35

$$$$
>  <compound>
CC(C)(C(=O)N1CCN(c2ccccc2CNCCc2cccs2)CC1)c1ccc(Cl)cc1

>  <qualifier-symbol>
<

>  <IA [%]>
45

$$$$
>  <compound>
NC1(C(=O)N[C@H](Cc2ccc(Cl)cc2)C(=O)N2CCN(c3ccccc3CNCCc3cccs3)CC2)CC1

>  <qualifier-symbol>
=

>  <IA [%]>
12

$$$$
>  <compound>
CC(N[C@@H]1CCCC[C@H]1N)c1ccccc1N1CCN(C(=O)[C@@H](Cc2ccc(Cl)cc2)NC(=O)CCN)CC1 (stereo partly drawn)

>  <qualifier-symbol>
=

>  <IA [%]>
64

$$$$
>  <compound>
CN(CCc1cccs1)Cc1ccccc1N1CCN(C(=O)[C@@H](Cc2ccc(Cl)cc2)NC(=O)CCN)CC1

>  <qualifier-symbol>
=

>  <IA [%]>
32

$$$$
